Provenance of the data: PubChem BioAssay AID540252

molecular target: glucose-6-phosphate dehydrogenase-6-phosphogluconolactonase (Plasmodium falciparum 3D7); test: inhibition of P. falciparum G6PD activity – biochemical, end-point NADPH detection, orthogonal assay, dose response (AID 540252); details: purified PfG6PD enzyme, NADPH direct detection
The source made the active and inactive calls. How the calls were made is not given here.
// allowed return values: YES = active, NO = inactive

Incoming: Could you please tell me the result logged for `CC1=CC(C)(C)Nc2ccc(OC(=O)CN3C(=O)CCC3=O)cc21` in this assay?
Outgoing: NO

Incoming: Dear all, I need the recorded test outcome for `CCOC(=O)Nc1ccc(NCc2ccc(F)cc2)nc1N` , thank you.
Outgoing: NO

Incoming: Any idea what this test logged for `CC1(C)Nc2ccc(O)cc2-c2c1ssc2=S` ?
Outgoing: NO

Incoming: Please state the recorded outcome for this compound: `O=C(CBr)c1ccc([N+](=O)[O-])c(CS(=O)(=O)c2ccc(Cl)cc2)c1`
Outgoing: YES

Incoming: I'd appreciate the recorded outcome for COc1ccc(N2CSC3=C(C#N)C(c4cc(OC)c(OC)cc4OC)CC(=O)N3C2)c(OC)c1 (stereo unspecified) from this test.
Outgoing: NO

Shifting focus to the compound that follows.
Incoming: Would you mind telling me which call this test gave `Oc1ccc(-c2cn3c(n2)SCC3)cc1O` ?
Outgoing: NO

###

Reported IC50 values are given for each entry in this list.
target: glucose-6-phosphate dehydrogenase-6-phosphogluconolactonase (Plasmodium falciparum 3D7); test: inhibition of P. falciparum G6PD activity – biochemical, end-point NADPH detection, orthogonal assay, dose response (AID 540252); details: purified PfG6PD enzyme, NADPH direct detection
Activity calls are given as the source filed them. How the calls were made is not given here.

Incoming: Write down the reported IC50 of `COc1cc(N)c2ncccc2c1Cl` , test system: glucose-6-phosphate dehydrogenase-6-phosphogluconolactonase (Plasmodium falciparum 3D7).
Outgoing: > 80 µM (inactive)

Next:
Incoming: For glucose-6-phosphate dehydrogenase-6-phosphogluconolactonase (Plasmodium falciparum 3D7), provide IC50 of `COC1=C(Br)C(=O)c2nc(C)ccc2C1=O` please.
Outgoing: > 80 µM (inactive)

Incoming: Entry `Cc1cccc(C(=O)Nc2nnc(S(=O)(=O)N3CCCCCC3)s2)c1` , system glucose-6-phosphate dehydrogenase-6-phosphogluconolactonase (Plasmodium falciparum 3D7): what IC50 was measured?
Outgoing: > 80 µM (inactive)

###

// reported IC50 per item
target: glucose-6-phosphate dehydrogenase-6-phosphogluconolactonase (Plasmodium falciparum 3D7); test: inhibition of P. falciparum G6PD activity – biochemical, end-point NADPH detection, orthogonal assay, dose response (AID 540252); settings: purified PfG6PD enzyme, NADPH direct detection
The source made the active and inactive calls. How the calls were made is not given here.

Incoming: Quick one: IC50 for `Cc1cccc(NC2=C(NC(=O)c3ccccc3)C(=O)c3ccccc3C2=O)c1` ?
Outgoing: > 80 µM (inactive)

Incoming: Any idea what its IC50 is? The compound is CCNc1cc2c(cc1O)CCC1C2CCC2(C)C(O)CCC12 (stereo not drawn)
Outgoing: > 80 µM (inactive)

***
Incoming: GET /values?readout=IC50&item= `O=S(=O)(Nc1cc(Sc2ncn[nH]2)c(O)c2ccccc12)c1ccccc1`
Outgoing: > 80 µM (inactive)

###

molecular target: glucose-6-phosphate dehydrogenase-6-phosphogluconolactonase (Plasmodium falciparum 3D7); test: inhibition of P. falciparum G6PD activity – biochemical, end-point NADPH detection, orthogonal assay, dose response (AID 540252); conditions: purified PfG6PD enzyme, NADPH direct detection
Calls of active or inactive are those of the source. How the calls were made is not given here.
Result category, one only: yes (1) = active, no (0) = inactive

Incoming: Can you look up the reported call for CC1=C(C)CS(=O)N(S(=O)(=O)c2ccc(Cl)cc2)C1 (centres undefined) for me?
Outgoing: no (0)

Incoming: Could you please tell me the result logged for `O=c1c2ccccc2[se]n1-c1ccccc1` in this assay?
Outgoing: yes (1)

Incoming: Hello, I am checking results. What call was entered for `Cc1cc(C)c(S(=O)(=O)Nc2cc(SCC(=O)O)c(O)c3ccccc23)cc1C` ?
Outgoing: no (0)

---
Incoming: Please share the test call associated with `Clc1ccc(N=c2ssnc2Cl)nc1` .
Outgoing: no (0)

Incoming: Check the results log: what was the call for `Cc1ccc(Cl)cc1NC1=C/C(=N\S(=O)(=O)c2cccs2)c2ccccc2C1=O` ?
Outgoing: no (0)

Incoming: Give the logged outcome of this assay for the following compound: `Cc1ccc(S(=O)(=O)Oc2cccc(/C=N/Nc3ccc(C(=O)O)cc3)c2)cc1`
Outgoing: no (0)

Incoming: For this compound, state the assay outcome: `Cc1ccnc(-n2sc3ccccc3c2=O)n1`
Outgoing: no (0)

Incoming: Field: outcome | Entry: `O=[N+]([O-])c1cnc(Sc2ccncn2)c([N+](=O)[O-])c1`
Outgoing: yes (1)

Incoming: What call does the record list for `COc1ccc(-n2c(=S)[nH]c3c(sc(=S)n3-c3ccccc3)c2=O)c(OC)c1` ?
Outgoing: yes (1)

###

molecular target: glucose-6-phosphate dehydrogenase-6-phosphogluconolactonase (Plasmodium falciparum 3D7); experiment: inhibition of P. falciparum G6PD activity – biochemical, end-point NADPH detection, orthogonal assay, dose response (AID 540252); settings: purified PfG6PD enzyme, NADPH direct detection
Activity calls are given as the source filed them. How the calls were made is not given here.
Outcome (select one): label 1 (active), label 0 (inactive)

Consider the following illustrative entries.
Incoming: What is the recorded call for this molecule in the test? `O=C(CCC(=O)OCC(=O)c1ccc([N+](=O)[O-])cc1)Nc1ccccc1Cl`
Outgoing: label 1

Incoming: Called result for CCOC(=O)c1c(C2COc3ccccc3O2)csc1NC(=O)c1ccco1 (stereo not given)
Outgoing: label 0

Incoming: In this assay, the call recorded for CC1(OC(=O)C2CCCC2)C(=O)C=C2C=C(c3ccsc3)N(CC3CC3)C=C2C1=O (stereo not given) was what?
Outgoing: label 0

Incoming: Outcome? `C[C@]12CC[C@@H]3c4cc(O)c(O)cc4CC[C@H]3[C@@H]1CC[C@@H]2O`
Outgoing: label 1

Incoming: Assay outcome for `COc1cc(NCCCn2cnc(C(=O)Nc3ccc(C)c(C)c3)n2)cc(OC)c1OC` : what was it?
Outgoing: label 0

Incoming: Record lookup: outcome of this test for `COc1cccc(C(=O)Nc2nnc(S(=O)(=O)N(C)Cc3ccccc3)s2)c1` ?
Outgoing: label 0

---
Incoming: Dear all, I need the recorded test outcome for `CCCN1CCc2cc(O)cc3c2[C@H]1Cc1ccc(O)c(O)c1-3` , thank you.
Outgoing: label 0

Incoming: Hi, sorry to bother you, what did the test record for `N#Cc1ccc(Oc2cccc3cccnc23)c([N+](=O)[O-])c1` ?
Outgoing: label 0

Incoming: Status in this test for `CCN1CCN(C(=S)c2ccc(O)cc2)CC1` ?
Outgoing: label 0

Incoming: Could you kindly confirm the outcome this assay logged for `Nc1ccc(N(CCO)CCO)cc1` ?
Outgoing: label 0

###

biological target: glucose-6-phosphate dehydrogenase-6-phosphogluconolactonase (Plasmodium falciparum 3D7); experiment: inhibition of P. falciparum G6PD activity – biochemical, end-point NADPH detection, orthogonal assay, dose response (AID 540252); conditions: purified PfG6PD enzyme, NADPH direct detection
The source made the active and inactive calls. No rule for the calls is given here.
Write down the outcome that applies. Available outcomes: T = active, F = inactive

Incoming: I'd appreciate the recorded outcome for `CN=c1scc(C)n1/N=C/c1ccc(O)c(O)c1O` from this test.
Outgoing: F

Incoming: Called result for `O=C(Cn1sc2ccccc2c1=O)Nc1ccccc1`
Outgoing: T

Incoming: Hi, do you know how `COc1ccc(Cl)cc1NC(=O)c1cccc([N+](=O)[O-])c1O` came out in this test?
Outgoing: F

Incoming: Record request — test call for `Cc1ccc(S(=O)(=O)SCCCSS(=O)(=O)c2ccc(C)cc2)cc1`
Outgoing: T

Incoming: For `COc1cc(CNc2ccc(N3CCCC3)cc2)ccc1OCc1ccccc1F` , what call appears in the results of this test?
Outgoing: F

New cases:
Incoming: Test call for this compound, please: `O=C(CNc1ccc2c(c1)OCO2)N/N=C\c1cn(Cc2ccccc2)c2ccccc12`
Outgoing: F

###

Each item that follows carries a reported IC50.
target: glucose-6-phosphate dehydrogenase-6-phosphogluconolactonase (Plasmodium falciparum 3D7); assay: inhibition of P. falciparum G6PD activity – biochemical, end-point NADPH detection, orthogonal assay, dose response (AID 540252); details: purified PfG6PD enzyme, NADPH direct detection
Calls of active or inactive are those of the source. No rule for the calls is given here.

Worked examples follow.
Incoming: Field request: IC50 | item: `Cc1nc2c(o1)C(=O)c1ccccc1C2=Nc1ccccc1`
Outgoing: > 80 µM (inactive)

Incoming: Data request, read-out IC50, for `Cc1cccc(-n2c(=S)[nH]c3sc4c(c3c2=O)CCc2ccccc2-4)c1`
Outgoing: > 80 µM (inactive)

---
Incoming: If you can, please state the reported IC50 value of CCNc1ccccc1CP(=O)(c1ccccc1)c1ccccc1O (stereo unspecified) .
Outgoing: > 80 µM (inactive)

Incoming: Entry `COC(=O)CCC(=O)Nc1sc(Cc2ccccc2)c(C)c1C(N)=O` : reported IC50 = ?
Outgoing: > 80 µM (inactive)

Incoming: Requested field: IC50. Item: `O=S(=O)(Nc1c(O)ccc2ccccc12)c1ccccc1`
Outgoing: > 80 µM (inactive)

Incoming: Field request: IC50 | item: `O=C(CNC(=O)c1ccccc1)NCC(=O)OCC(=O)c1ccc([N+](=O)[O-])cc1`
Outgoing: 59.6 µM
